Every entry's value here was drawn from patent EP4671273A1.

- tested on: T1, rhIL-21-His (AB235875-1001, Abcam) (human, UniProt Q9HBE4 30-162)
- T1 construct: bought; not shown: His tag, length and position not described
- T1 sequence (Q9HBE4 30-162 limits assumed): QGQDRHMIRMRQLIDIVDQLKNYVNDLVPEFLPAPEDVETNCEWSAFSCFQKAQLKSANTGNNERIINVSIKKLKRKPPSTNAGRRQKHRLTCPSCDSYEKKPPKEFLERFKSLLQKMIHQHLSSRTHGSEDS
- protocol details: SPR, Fab on captured rhIL-21-His
Reported Kd is given for each of the following binders.

binder	Kd / nM
VPH777 Fab (Fab, V domains shown, Fab) VH: QVQLQESGPGLVKPSETLSLTCTVSGGSISSDYWGWIRQPPGKGLEWIGYISSSGSTNYNPSLKSRVTISVDTSRNQFSLKLSSVTAADTAVYYCARSAGVADFDFWGQGTLVTVSS VL: DIQLTQSPSSVSASVGDRVTITCRASQGISSWLAWYQHKPGKAPKLLIYVASSLQSGVPSRFSGSGSGTDFTLTISSLQPEDFATYYCQQASSFPLTFGGGTKVEIK	0.73
IFQ920 Fab (Fab, V domains shown, Fab) VH: QVQLQESGPGLVKPSETLSLTCTVSGGSISSDFWGWIRQPPGKGLEWIGYISSRGSTNYNPSLKRRVTISVDTSRNQFSLKLSSVTAADTAVYYCARSAGVADFDFWGQGTLVTVSS VL: DIQMTQSPSSVSASVGDRVTITCRASQGISSWLAWYQHKPGKAPKLLIYVASSLQSGVPSRFSGSGSGTDFTLTISSLQPEDFATYYCQQANSAPLTFGGGTKVEIK	8.28
